- Test system: human SMAD7 mRNA
- experiment: Antisense inhibition of human SMAD7 mRNA expression in Hep3B cells by 3-10-3 cEt gapmers, 10,000 nM, electroporation (Example 2)
- Assay type: cell-based
- condition.summary: Hep3B cells, electroporation with 10,000 nM antisense oligonucleotide, approximately 24 hours, SMAD7 mRNA by RT-PCR (RTS5062), relative to untreated control cells
Strand notation (5' to 3'): a small letter for the sugar, then the base; units joined by * are phosphorothioate-linked, units joined directly phosphodiester-linked; [ ] holds rarer units or linkages, { } end groups; capitals alone tell only the bases. k = constrained ethyl (cEt); [5mC] = 5-methylcytosine; d = 2'-deoxy (DNA)
property.name: % Inhibition (%)
Output spec: scalar in %, unitless text.

• 798721 (antisense kG*k[5mC]*k[5mC]*d[5mC]*dA*dG*dG*d[5mC]*dA*dG*d[5mC]*dA*dT*k[5mC]*k[5mC]*kA) [compound 798721] = 41

INPUT: What does the record list as % Inhibition for 830055 (kT*kT*kG*dG*dG*dT*dG*dA*dG*dT*dA*dA*d[5mC]*k[5mC]*kA*kG; antisense) [compound 830055] ?
OUTPUT: 57

INPUT: Quick one: 799411 (antisense kT*kG*kG*dA*dG*dA*dA*d[5mC]*dT*dT*dT*dT*d[5mC]*kT*k[5mC]*k[5mC]) [compound 799411]
OUTPUT: 0

INPUT: Same for 798866 (kG*kT*k[5mC]*d[5mC]*dT*dG*dG*dA*dG*dT*d[5mC]*d[5mC]*dG*kG*kG*kT; antisense) [compound 798866]
OUTPUT: 20

INPUT: Similarly, 798885 (kG*k[5mC]*kA*d[5mC]*dG*dG*dT*dA*dA*dA*dG*d[5mC]*d[5mC]*k[5mC]*kG*kT; antisense) [compound 798885] ?
OUTPUT: 43

INPUT: Try this substance next: 830020 (antisense kG*kA*kA*dA*dG*dG*d[5mC]*d[5mC]*d[5mC]*dA*dA*d[5mC]*dA*kG*k[5mC]*k[5mC]) [compound 830020]
OUTPUT: 23

INPUT: Do the same for 799434 (antisense kT*kG*kA*dA*dA*d[5mC]*dA*d[5mC]*dG*dG*dG*dA*dA*kG*k[5mC]*kA) [compound 799434] please
OUTPUT: 37

INPUT: Next substance up: 830191 (antisense k[5mC]*kT*kA*dA*dT*d[5mC]*dA*dG*dA*dT*dG*d[5mC]*d[5mC]*kT*kG*k[5mC]) [compound 830191]
OUTPUT: 47

INPUT: Same read-out for 830203 (kG*k[5mC]*kT*d[5mC]*dT*dG*dA*dA*dG*dG*d[5mC]*dT*dA*k[5mC]*kA*k[5mC]; antisense) [compound 830203] ?
OUTPUT: 40

INPUT: Follow-up entry: 799254 (antisense kA*kA*kA*d[5mC]*dT*d[5mC]*d[5mC]*dA*dA*dA*dG*dG*dT*kG*k[5mC]*kG) [compound 799254]
OUTPUT: 11

INPUT: Subsequent entry: 798772 (k[5mC]*kT*kT*d[5mC]*d[5mC]*dG*dA*dG*dG*dA*dA*dT*dG*k[5mC]*k[5mC]*kT; antisense) [compound 798772]
OUTPUT: 48

INPUT: Please do the same for 800039 (kG*kG*kT*dT*dA*dA*dT*dG*dG*d[5mC]*d[5mC]*d[5mC]*dA*kG*k[5mC]*k[5mC]; antisense) [compound 800039] as well.
OUTPUT: 27

INPUT: Would you mind doing 799988 (kG*k[5mC]*kG*d[5mC]*dA*dA*dA*d[5mC]*dA*dT*d[5mC]*dA*d[5mC]*k[5mC]*kA*k[5mC]; antisense) [compound 799988] as well?
OUTPUT: 32

INPUT: Would you kindly repeat that for 830198 (antisense kA*kG*kG*d[5mC]*dT*dA*d[5mC]*dA*d[5mC]*d[5mC]*dA*dA*dA*kG*kA*k[5mC]) [compound 830198] ?
OUTPUT: 30

###

- Tested on: human peripheral blood mononuclear cells (PBMCs)
- experiment: Human PBMC activation assay, cytokine levels (IL-10, IL-6, MCP-1, TNF-α) in supernatant after 24 hours (Example 9)
- condition.summary: human PBMC supernatant after 24 hours; 0.32 μM oligonucleotide
Label Criterion met when Levels of MCP-1 is at or above 400 pg/mL; anything below gets Criterion not met.

Would you please look over these solved cases?
* 830025 (antisense TTTGTAAATCGAAAGC; 3-10-3 cEt gapmer, further chemistry not given here) [compound 830025] | Criterion not met
* 790615 (CCAATGAGAATGCTTC; 3-10-3 cEt gapmer, further chemistry not given here) [compound 790615] | Criterion met
* 830037 (antisense CTATTGGCTGATCTGG; 3-10-3 cEt gapmer, further chemistry not given here) [compound 830037] | Criterion met
* 736697 (antisense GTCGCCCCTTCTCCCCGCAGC; chemistry not fully specified) [compound 736697] | Criterion met

INPUT: Confirm if Levels of MCP-1 reported for the substance 829994 (GGAGGCAGGGCCGCGA; 3-10-3 cEt gapmer, further chemistry not given here) [compound 829994] is 400 pg/mL or above.
OUTPUT: Criterion met

INPUT: Cool, now 830121 (AGAATCAAGCCCTGGC; 3-10-3 cEt gapmer, further chemistry not given here) [compound 830121]
OUTPUT: Criterion not met

INPUT: Then 798781 (CGTAAGATTCACAGCA; 3-10-3 cEt gapmer, further chemistry not given here) [compound 798781] ?
OUTPUT: Criterion met

###

Entries and their measured Levels of IL-10 follow.
- System: human peripheral blood mononuclear cells (PBMCs)
- experiment: Human PBMC activation assay, cytokine levels (IL-10, IL-6, MCP-1, TNF-α) in supernatant after 24 hours (Example 9)
- condition.summary: human PBMC supernatant after 24 hours; 0.0128 μM oligonucleotide

Worked examples follow.
- 830121 (AGAATCAAGCCCTGGC; 3-10-3 cEt gapmer, further chemistry not given here) [compound 830121]: 2.0 pg/mL
- 830025 (antisense TTTGTAAATCGAAAGC; 3-10-3 cEt gapmer, further chemistry not given here) [compound 830025]: 1.5 pg/mL

INPUT: Please look up its Levels of IL-10: 736697 (antisense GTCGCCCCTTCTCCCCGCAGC; chemistry not fully specified) [compound 736697]
OUTPUT: 2.1 pg/mL

###

- System: human SMAD7 mRNA
- experiment: Antisense inhibition of human SMAD7 mRNA expression in Hep3B cells by 3-10-3 cEt gapmers, 10,000 nM, electroporation (Example 2)
- Type: cell-based
- condition.summary: Hep3B cells, electroporation with 10,000 nM antisense oligonucleotide, approximately 24 hours, primer probe set RTS5062, relative to untreated control cells
- Experimental: Antisense oligonucleotides were designed to target human SMAD7 mRNA and were tested for their effects on SMAD7 mRNA expression in vitro. […] After a treatment period of approximately 24 hours, RNA was isolated from the cells and SMAD7 mRNA levels were measured by quantitative real-time PCR. […] SMAD7 mRNA levels were adjusted according to total RNA content, as measured by RIBOGREEN®. […]
Strand notation (5' to 3'): a small letter for the sugar, then the base; units joined by * are phosphorothioate-linked, units joined directly phosphodiester-linked; [ ] holds rarer units or linkages, { } end groups; capitals alone tell only the bases. k = constrained ethyl (cEt); [5mC] = 5-methylcytosine; d = 2'-deoxy (DNA)
property.name: % inhibition of SMAD7 mRNA expression
For clarity, give the value followed by its unit.

Solved entries:
- 799109 (antisense k[5mC]*kA*kG*dT*dG*d[5mC]*dT*dG*dA*dG*d[5mC]*dT*dG*kG*kT*kT) [compound 799109]: 48%
- 799421 (antisense kA*kA*k[5mC]*d[5mC]*d[5mC]*dA*dA*dG*dA*d[5mC]*d[5mC]*dA*dA*kA*kA*kA) [compound 799421]: 63%
- 799187 (antisense k[5mC]*kT*kT*d[5mC]*dT*d[5mC]*dT*dT*dG*dT*dT*d[5mC]*dA*kT*kT*kT) [compound 799187]: 17%

INPUT: What measured % inhibition of SMAD7 mRNA expression goes with 799424 (antisense k[5mC]*kT*k[5mC]*d[5mC]*dA*dA*dA*dG*dG*d[5mC]*dT*dG*d[5mC]*kA*kG*kG) [compound 799424] ?
OUTPUT: 34%

INPUT: What about 799092 (antisense kG*kG*k[5mC]*dA*d[5mC]*dT*dG*dG*dG*dT*dG*dA*dG*k[5mC]*kA*kA) [compound 799092] ?
OUTPUT: 30%

INPUT: # iterate: 798730 (antisense kG*kG*kT*dG*dA*d[5mC]*d[5mC]*dT*dT*dT*dG*dG*d[5mC]*kA*k[5mC]*k[5mC]) [compound 798730]
OUTPUT: 0%

INPUT: What do you have for 798661 (kG*kG*k[5mC]*dT*dG*d[5mC]*d[5mC]*d[5mC]*d[5mC]*dA*d[5mC]*d[5mC]*d[5mC]*k[5mC]*kG*k[5mC]; antisense) [compound 798661] ?
OUTPUT: 52%

INPUT: Check 799246 (antisense kA*k[5mC]*kA*dG*dT*dA*dT*d[5mC]*dT*dG*dG*dG*d[5mC]*k[5mC]*kA*k[5mC]) [compound 799246] too.
OUTPUT: 74%
